Reported inhibition values for a set of molecules
Assay: PhoP-dependent GFP reporter repression – Salmonella Typhimurium, primary screen (AID 1863);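 note: 0% = low Mg2+ inducing control and 100% = high Mg2+ repressing control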
Conditions: S. Typhimurium PhoP-regulated promoter GFP reporter, 4 h; at 50 µM; hits give high values
Among all 300,000 compounds or so, about 480 (0.16%) were called active. The list is a sample of the results. Measured potencies and affinities stand elsewhere.
// return numeric value only (unit: %, not printed)

Use the examples below as a reference point.
molecule: O=C(NNCc1ccc(O)cc1)c1ccccc1Cl
experimental_value: -5.79

molecule: COC(=O)[C@H](CCSC)NC(=O)Nc1ccc(C)cc1
experimental_value: -5.05

Switching to the query record.
## Input What does the data say about its inhibition? Entry: O=C1CCN(N=Nc2cccc(Cl)c2)N1
## Output -4.47

====

Assay: PhoP-dependent GFP reporter repression – Salmonella Typhimurium, primary screen (AID 1863);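 note: 0% = low Mg2+ inducing control and 100% = high Mg2+ repressing control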
Conditions: S. Typhimurium PhoP-regulated promoter GFP reporter, 4 h; at 50 µM; hits give high values
Out of some 300,000 compounds screened, about 480 (0.16%) were called active. Only a sample is shown. Measured potencies and affinities stand elsewhere.
measured_quantity: inhibition (%)
Field format: number, assumed %, no unit text.

Example entries begin here.
compound: O=C(N/N=C/c1ccccc1[N+](=O)[O-])c1cccs1
measured_quantity: inhibition
experimental_value: -1.95

compound: CC1(C)C(=O)Nc2ccccc2N1C(=O)Cn1ncc(Cl)c(Cl)c1=O
measured_quantity: inhibition
experimental_value: 1.69

compound: Cc1cc(Nc2ccccc2O)c2ccccc2n1
measured_quantity: inhibition
experimental_value: 8.86

compound: COc1ccc(CC(=O)N2CC3(C)CC2CC(C)(C)C3)cc1 (configuration not stated)
measured_quantity: inhibition
experimental_value: 1.16

compound: CCOC(=O)c1ccc2c(c1)NC(=O)C(N1CCN(c3ccc(OC)cc3)CC1)S2 (configuration not stated)
measured_quantity: inhibition
experimental_value: 8.89

## Input // query inhibition value for entry CCOC(=O)N1CCN(C(=O)c2ccc(NS(C)(=O)=O)cc2)CC1
## Output 12.6

## Input Please do the same for O=C(N/N=C\c1ccc(Cl)s1)c1cccs1 as well.
## Output -9.8

## Input Item: COc1ccc(CCNC(=O)c2cc(COc3c(F)cccc3F)on2)c(OC)c1
## Output 6.23

## Input Same for Cc1cccc(Nc2nc3ccccc3s2)c1C
## Output 6.62

## Input Then what about the compound Cc1cc(C)n2nc(C(=O)OCC(=O)c3c[nH]c4ccccc34)nc2n1 ?
## Output 10.2

## Input Same question for Cc1cc(N2CCC(C)CC2)nc2cccc(O)c12 please.
## Output 11.4

## Input Same again, this time with Cc1cc(Nc2ccccc2)nc2cc(O)ccc12
## Output 60.3

====

Assay: PhoP-dependent GFP reporter repression – Salmonella Typhimurium, primary screen (AID 1863);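 note: 0% = low Mg2+ inducing control and 100% = high Mg2+ repressing control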
Settings: S. Typhimurium PhoP-regulated promoter GFP reporter, 4 h; at 50 µM; hits give high values
Hit rate of the full screen: of about 300,000 compounds, about 480 (0.16%) were called active. These entries were drawn from the full list. Entries with a potency or affinity are not part of this list.
measured_quantity: inhibition (%)
Could you give me the number in %? Just the number is fine.

compound: CN1CCN(Cc2cc(COCc3ccccc3)c3cccnc3c2O)CC1
inhibition / %: 21
//
compound: CC1CCCN(C(=O)c2ccc(S(=O)(=O)Nc3ccccc3Cl)cc2)C1 (stereo not drawn)
inhibition / %: 3.82
//
compound: CCn1cc(C(=O)O)c(=O)c2cnc(N3CCN(C(=S)NC(=O)c4ccc(OC)cc4)CC3)nc21
inhibition / %: 1.6

## Input Could you share which inhibition value was measured for CCOc1ccc(C(=O)NCC(=O)N2CCC3CCCCC3C2)cc1OCC (stereo not drawn) ?
## Output 7.73

## Input What about this compound? CCN(CC)c1ccc(/C=N/Nc2ccccc2)c(O)c1
## Output 7.3

## Input CC12CCC(C(=O)NC3CCCC3)(CC1=O)C2(C)C (stereo not drawn) ?
## Output -12.7

## Input What about COCCNCCCOc1ccc(Br)cc1Cl ?
## Output 2.25

## Input Moving on to O=C(Nc1cc(N2CCCCC2)ncn1)c1ccccc1
## Output 1.2

## Input Can you check Cc1ccc(-c2noc(CN3C(C)CCCC3C)n2)cc1 (stereo not drawn) next?
## Output 3.05

## Input Also O=[N+]([O-])c1cccc2c(N3CCOCC3)ccnc12 , if possible.
## Output -2.73

## Input What about CCC1=C(c2ccc(C)cc2)S(=O)(=O)N=C1N1CCC(C(=O)NCCCN2CCCCC2)CC1 ?
## Output -2.43

## Input What do we get for O=C(NCc1cccnc1)/C(=C/c1ccco1)NC(=O)c1ccccc1 ?
## Output -2.07
